# System: BT-549
# assay.details: NCI tumour cell line growth inhibition, 48 h
The source made the active and inactive calls. Cut-off read from the data, not from the text of the source: active = GI50 up to about 1.1 µM and inactive = higher.
Task for the reader: assign each of the following compounds its reported GI50.

Q) # query: GI50 of entry "O=C1C=CC(=O)N1c1ccc2c(c1)Cc1cc(NC(=O)C(F)(F)F)ccc1-2"
A) 16.6 µM (inactive)

Q) # query: GI50 of entry CC(C)OP(=O)(OC(C)C)C(C(C)C)N(C)/C(N)=N\C1=NC(C(F)(F)F)(C(F)(F)F)N=C(C(C(F)(F)F)C(F)(F)F)O1 (stereo not given)
A) 2.79 µM (inactive)

Q) # query: GI50 of entry "Cc1cccc(-c2cc(O)c3c(C)ccnc3n2)c1"
A) > 100 µM (inactive)

Q) # query: GI50 of entry COc1ccc(C2SC(=N)Nc3c2c(C)nn3C(=O)c2ccc(Cl)cc2)cc1OC (stereo not given)
A) > 10 µM (inactive)

Q) # query: GI50 of entry "O=c1cc(CSc2c(-c3ccccc3)c(=O)n(-c3ccccc3)c(=S)n2-c2ccccc2)[nH]c(=O)[nH]1"
A) > 100 µM (inactive)

* * *

# Test system: KM12
# assay.details: NCI tumour cell line growth inhibition, 48 h
Activity calls are given as the source filed them. Rule as the data show it: active = GI50 up to about 1.1 µM and inactive = higher.
observation.type: GI50

Q) # query: GI50 of entry "C(=N\Nc1nnc(-c2nnc(N/N=C/c3ccccc3)o2)o1)/c1ccccc1"
A) > 10 µM (inactive)

Q) # query: GI50 of entry "O=c1[nH]c(=O)n(CCOc2ccccc2)cc1Nc1ccccc1"
A) > 100 µM (inactive)

Q) # query: GI50 of entry "CO/C=C/c1cc2c(cc1C(OC)OC)OCO2"
A) 52.6 µM (inactive)

Q) # query: GI50 of entry "N#CCC(=O)N1CCCOCCC1"
A) > 100 µM (inactive)

Q) # query: GI50 of entry CCC1(C)NN=c2s/c(=C/c3ccc(OC)cc3)c(=O)n2N1 (stereo not given)
A) > 100 µM (inactive)

Q) # query: GI50 of entry O=S(=O)(CC1=NC2C=CC=CC2N=C1)NCc1ccccc1 (stereo not given)
A) > 100 µM (inactive)

Q) # query: GI50 of entry "O=C(/C=C/c1cccc(Br)c1)N1CCN(CCOC(c2ccccc2)c2ccccc2)CC1"
A) 32 µM (inactive)

Q) # query: GI50 of entry "O=C(c1cc2c(c3ccccc13)NC1(CCCCC1)N=C2C(F)(F)F)C(F)(F)F"
A) 3.42 µM (inactive)

Q) # query: GI50 of entry "CC(=O)c1cccc(Nc2c3ccccc3nc3occc23)c1"
A) 4.73 µM (inactive)

Q) # query: GI50 of entry CC(=O)OCC1OC(OC2CC3C(C)(C)C(O)CC[C@]3(C)C3CCC45CC4(CCC5[C@@H](C)CC(O)C(O)C(C)(C)O)[C@]23C)C(O)C(O)C1O (stereo not given in full)
A) > 10 µM (inactive)

* * *

# System: SF-295
# assay.details: NCI tumour cell line growth inhibition, 48 h
Calls of active or inactive are those of the source. Cut-off read from the data, not from the text of the source: active = GI50 up to about 1.1 µM and inactive = higher.
Hello, when you answer, please use one of the following outcomes: Y for active, N for inactive

Q) Returns: the outcome recorded for "Cc1ccc(S(=O)(=O)Nn2c(O)c(C#N)c(-c3ccc([N+](=O)[O-])cc3)c(C#N)c2=O)cc1" in this assay.
A) N

Q) Returns: the outcome recorded for "COC(=O)[C@@H]1[C@H](O)[C@H](C)[C@H](O)[C@H](C)/C=C\C=C(\C)C(=O)Nc2c(C)c(OC(C)=O)c3c(c2O)C(=O)C(C)=C2OCOC(=C23)/C(C)=C/[C@@H](O)[C@H](O)[C@@H](C)[C@H]1OC(C)=O" in this assay.
A) N

Q) Returns: the outcome recorded for "O=C1Nc2ccccc2/C1=C1\C(=O)Nc2ccccc21" in this assay.
A) N

Q) Returns: the outcome recorded for "CCOC(=O)c1cc(=O)c2cccc3c2n1CCS3" in this assay.
A) N

Q) Returns: the outcome recorded for CC(N)/C(N)=N/O (stereo not drawn) in this assay.
A) N

Q) Returns: the outcome recorded for COc1cc(C2c3cc4c(cc3OC(N3CCOCC3)C2C)OCO4)cc(OC)c1OC (stereo not drawn) in this assay.
A) Y

Q) Returns: the outcome recorded for C=C1C(=O)OC2C1C(OC(=O)/C(C)=C/C)CC1(C)C(=O)CCC(=C)C21 (stereo not drawn) in this assay.
A) N

Q) Returns: the outcome recorded for CCOC(=O)C1C(c2ccc(OC)cc2)c2c(nn(-c3ccccc3)c2O)CC1(O)OCC (stereo not drawn) in this assay.
A) N

* * *

# Tested on: MDA-N
# assay.details: NCI tumour cell line growth inhibition, 48 h
Active and inactive are the calls of the source. Rule as the data show it: active = GI50 up to about 1.1 µM and inactive = higher.
observation.type: GI50

Q) # query: GI50 of entry O=C(O)c1ccc2c(c1)CC1(C2)Cc2ccccc2C1=O (stereo unspecified)
A) > 100 µM (inactive)

Q) # query: GI50 of entry COC1(O)C(=O)c2ccccc2OC1(OC)c1ccccc1 (stereo unspecified)
A) > 100 µM (inactive)

Q) # query: GI50 of entry CC(Oc1ccccc1Cl)C(=O)NN1C(=O)CC(=O)N(c2ccc(Cl)cc2)C1=S (stereo unspecified)
A) 37.6 µM (inactive)

Q) # query: GI50 of entry "CCOC(=O)c1cc(=O)c2cccc3c2n1CCS3"
A) > 100 µM (inactive)

Q) # query: GI50 of entry "S=c1[nH]c(Cl)cc2nc(Cl)cn12"
A) 1.98 µM (inactive)

Q) # query: GI50 of entry "Clc1ccc(COc2ccccc2/C=N/c2c(-c3ccco3)nc3ccccn23)c(Cl)c1"
A) 23 µM (inactive)

* * *

Task for the reader: assign each of the following molecules its reported GI50.
# System: ACHN
# assay.details: NCI tumour cell line growth inhibition, 48 h
Activity calls are given as the source filed them. Rule as the data show it: active = GI50 up to about 1.1 µM and inactive = higher.

Q) # query: GI50 of entry "COc1ccccc1Cn1nc(OC)c2cc([N+](=O)[O-])ccc21"
A) 31 µM (inactive)

Q) # query: GI50 of entry N#CC(N)(C(=O)CCC(=O)Nc1cccc(Cl)c1)c1ccc(Cl)cc1 (stereo not given)
A) > 100 µM (inactive)

Q) # query: GI50 of entry "N=C(N)NS(=O)(=O)c1ccc(Nc2c3ccccc3nc3c(C(=O)Nc4ccc(S(N)(=O)=O)cc4)ccc(Cl)c23)cc1"
A) > 100 µM (inactive)

Q) # query: GI50 of entry CC1CC2OC(=N)C1(C#N)C2(C#N)C#N (stereo not given)
A) 31.4 µM (inactive)

Q) # query: GI50 of entry "O=C(NCCCCNc1cccccc1=O)OCc1ccccc1"
A) > 100 µM (inactive)

Q) # query: GI50 of entry C#CC(O)/C=C/C(O)CCCC(O)CC#CC(O)C#CCCCCC(O)/C=C/CCCC(O)/C=C/CCCCCCCCCCCCCC(O)C(O)C#CC(=O)O (stereo not given)
A) > 25 µM (inactive)

Q) # query: GI50 of entry "CC(C)(C)c1cc2ccc(C(N)=O)cc2c(=O)[nH]1"
A) > 100 µM (inactive)

Q) # query: GI50 of entry "COc1c(C(=O)/C(=N/Nc2ccccc2)C(C)=O)c(O)c(OC)c2occc12"
A) 50.4 µM (inactive)

Q) # query: GI50 of entry COC1(O)C(=O)c2ccccc2OC1(OC)c1ccccc1 (stereo not given)
A) > 100 µM (inactive)

Q) # query: GI50 of entry "Cc1ccc(NC(=O)c2c(C)nc(=O)n3c2N(/N=C/c2ccc(Cl)cc2)CC3)cc1"
A) 16.3 µM (inactive)

* * *

# System: MDA-MB-231
# assay.details: NCI tumour cell line growth inhibition, 48 h
Calls of active or inactive are those of the source. Cut-off read from the data, not from the text of the source: active = GI50 up to about 1.1 µM and inactive = higher.
Hello, when you answer, please use one of the following outcomes: active, inactive

Q) Returns: the outcome recorded for CC1=C(/C=C/Cl)CC(Cl)C(C)(Cl)C1 (stereo not given) in this assay.
A) inactive

Q) Returns: the outcome recorded for "O=S(=O)(/N=C(\NO)Nc1ccc(Cl)cc1)c1ccc(-c2ccccn2)s1" in this assay.
A) inactive

Q) Returns: the outcome recorded for COC(CC1(CCNc2ccccc2)C(=O)N(COCC[Si](C)(C)C)c2ccccc21)OC (stereo not given) in this assay.
A) inactive

Q) Returns: the outcome recorded for "Cl/C(=C\C=N\c1ccc(I)cc1)c1ccc2ccccc2c1" in this assay.
A) inactive

Q) Returns: the outcome recorded for CCCCCCCCCCCCCCC(C(=O)[O-])[n+]1ccccc1 (stereo not given) in this assay.
A) inactive

Q) Returns: the outcome recorded for O=C1CCC(C(=O)O)C2=C1CCCC2 (stereo not given) in this assay.
A) inactive

Q) Returns: the outcome recorded for "O=C(NNC(=O)c1ccccc1O)c1cccs1" in this assay.
A) inactive

Q) Returns: the outcome recorded for "C/C(=N\NC(=S)N(C)C)c1nc2cccnc2[nH]1" in this assay.
A) active

Q) Returns: the outcome recorded for OCC1OC(n2cnc3c(Cl)nc(Nc4ccc(Cl)c(Cl)c4)nc32)CC1O (stereo not given) in this assay.
A) inactive

Q) Returns: the outcome recorded for "Nc1ccc(S2(c3ccc(N)cc3)C=C(c3ccccc3)C(c3ccccc3)=C2)cc1" in this assay.
A) inactive

Q) Returns: the outcome recorded for "CN(C)c1ccc(/C=c2/c3ccccc3n3c2cc(C24CC5CC(CC(C5)C2)C4)[n+]3C)cc1" in this assay.
A) active

Q) Returns: the outcome recorded for "Cc1ncc2c(=O)c3c(oc2n1)c1ccccc1n3Cc1ccccc1" in this assay.
A) inactive

Q) Returns: the outcome recorded for "NC(=O)NNc1nc(-c2ccccc2)cs1" in this assay.
A) inactive

Q) Returns: the outcome recorded for "C/C(=N\c1c2ccccc2nc2ccccc12)N(C)C" in this assay.
A) inactive

Q) Returns: the outcome recorded for "Clc1ccccc1/C=C/c1nsc(/C=C/c2ccccc2Cl)n1" in this assay.
A) inactive

Q) Returns: the outcome recorded for "CC(=O)N/N=C1\NC(=O)C[C@H]2[C@@H]3CC=C4C[C@@H](OC(C)=O)CC[C@]4(C)[C@H]3CC[C@]12C" in this assay.
A) inactive

Q) Returns: the outcome recorded for "COc1ccc2c(C)cc(N/N=C/c3ccc(C)s3)nc2c1" in this assay.
A) inactive

Q) Returns: the outcome recorded for "CCCCCCCCCCCCCCCCOP(=O)([O-])OCC[N+](C)(C)C1CC(C)(C)N(O)C(C)(C)C1" in this assay.
A) inactive

Q) Returns: the outcome recorded for "CN(C)CCNC(=O)c1cccc2cc([N+](=O)[O-])ccc12" in this assay.
A) inactive

Q) Returns: the outcome recorded for "O=c1cc(CSc2c(-c3ccccc3)c(=O)n(-c3ccccc3)c(=S)n2-c2ccccc2)[nH]c(=O)[nH]1" in this assay.
A) inactive

Q) Returns: the outcome recorded for "O=[N+]([O-])c1cc2no[n+]([O-])c2cc1N1CCCCC1" in this assay.
A) inactive

Q) Returns: the outcome recorded for CC1CC2OC(=N)C1(C#N)C2(C#N)C#N (stereo not given) in this assay.
A) inactive

Q) Returns: the outcome recorded for "N#Cc1c(N2CCCC2)nsc1NCc1ccccc1" in this assay.
A) inactive

Q) Returns: the outcome recorded for C=C1CC(C)(COc2cc(=O)oc3ccccc23)OC1=O (stereo not given) in this assay.
A) inactive

Q) Returns: the outcome recorded for "COC(=O)c1cc(C#N)[nH]c1-c1ccc(C)s1" in this assay.
A) inactive
